# testConditions: 448.15 K; Liquid
valueType: vapor or sublimation pressure (kPa)

CCCCCCCCCCCCCCCCCCCCCC :: 0.1809
CCCCCCCCCCCCCCCCCCCCCCCCCC :: 0.02583
CCCCCCCCCCCCCCCCCCCCCCC :: 0.1096
CCCCCCCCCCCCCCCCCCCCCCCCCCCCCC :: 0.003636
CCCCCCCCCCCCCCCCCCCCCCCCC :: 0.04146

a = CCCCCCCCCCCCCCCCCCCCCCCCCCCC
b = CCCCCCCCCCCCCCCCCCCCCCCCCCCCC
Among a and b , which shows a numerically higher vapor or sublimation pressure result? Answer by quoting the chosen item's label.
a

A = CCCCCCCCCCCCCCCCCCCCCCCCCCC
B = CCCCCCCCCCCCCCCCCCCCCCCC
Look at A and B . Which one has the lower recorded vapor or sublimation pressure number? // output: label of the selected item
A

* * *

# testConditions: 575.15 K; Liquid
valueType: vapor or sublimation pressure (kPa)

Please review the entries below; each comes with its answer.
CCCCCCCCCCCCCCCCCCCCCCCCC :: 8.882
CCCCCCCCCCCCCCCCCCCCCC :: 21.39
CCCCCCCCCCCCCCCCCCCCCCCCCC :: 6.742
CCCCCCCCCCCCCCCCCCCCCCC :: 15.88
CCCCCCCCCCCCCCCCCCCCC :: 29.02

a = CCCCCCCCCCCCCCCCCCCCCCCCCCC
b = CCCCCCCCCCCCCCCCCCCCCCCCCCCCCC
Lab log: flag the item ( a or b ) with the smaller vapor or sublimation pressure figure. Use the label to indicate which entry you chose.
b
(b: 2.167 kPa, a: 5.076 kPa)

* * *

# testConditions: 358.15 K; Liquid
valueType: vapor or sublimation pressure (kPa)

Solved entries (count: 3):
CCCCCCCCCCCCCCCCCCCCCCCCCC :: 1.401e-05
CCCCCCCCCCCCCCCCCCCCCCCC :: 6.308e-05
CCCCCCCCCCCCCCCCCCCCCCC :: 0.0001361

I = CCCCCCCCCCCCCCCCCCCCCCCCC
II = CCCCCCCCCCCCCCCCCCCCCCCCCCCCC
III = CCCCCCCCCCCCCCCCCCCCCCCCCCC
IV = CCCCCCCCCCCCCCCCCCCCC
Sort low-to-high on vapor or sublimation pressure, please. Returns: the labels listed in the requested order.
II, III, I, IV
(II: 1.365e-06 kPa, III: 7.253e-06 kPa, I: 2.963e-05 kPa, IV: 0.0006673 kPa)

I = CCCCCCCCCCCCCCCCCCCCCC
II = CCCCCCCCCCCCCCCCCCCCCCCCCCCCCC
Please indicate which item has the smaller measured vapor or sublimation pressure: I versus II Please respond with the label that marks your chosen entry.
II
(II: 6.217e-07 kPa, I: 0.0002988 kPa)

* * *

# testConditions: 478.15 K; Liquid
valueType: vapor or sublimation pressure (kPa)

Solved cases (3 shown):
CCCCCCCCCCCCCCCCCCCCC :: 1.201
CCCCCCCCCCCCCCCCCCCCCCCCCCCCCC :: 0.02543
CCCCCCCCCCCCCCCCCCCCCCCCCCC :: 0.09492

a = CCCCCCCCCCCCCCCCCCCCCCCCC
b = CCCCCCCCCCCCCCCCCCCCCCC
c = CCCCCCCCCCCCCCCCCCCCCCCCCC
With regard to vapor or sublimation pressure, arrange the entries in ascending order, please. As an answer, provide the labels arranged in the order called for.
c, a, b
(c: 0.14 kPa, a: 0.2114 kPa, b: 0.4952 kPa)
